B1: CDC25A (parent)
chain: TVAGKHQDLKYISPEIMASVLNGK

Variants of: B1
Test: protein stability index of a GFP-peptide fusion (GPS, HEK-293T) (PSI 1-6); higher = more stable;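 also: lentivirally expressed fusions sorted by FACS into six bins by GFP to DsRed ratio, PSI derived from sequencing read proportions per bin multiplied by bin number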
Conditions: c terminus: a fixed tail appended
Use true (1) when the recorded protein stability index is no lower than 3; use false (0) when it is lower.

// known answers, use as guide
Mutant: K5W
Category label: false (0)
//
Mutant: V2M
Category label: true (1)
//
Mutant: P14I
Category label: false (0)
//
Mutant: D8E
Category label: true (1)
//
Mutant: I12C
Category label: true (1)
//
Mutant: V2Q
Category label: true (1)

**Query** Record `S19N` ; criterion: protein stability index no lower than 3. Met?
**Result** true (1)

**Query** Entry to check: `K10H`
**Result** false (0)
